The measurements presented in this section are drawn from patent EP2682119A1.

Biological target: LDL oxidation carried out by MPO (Homo sapiens)
Construct: made in house
Sequence (P05164 49-745): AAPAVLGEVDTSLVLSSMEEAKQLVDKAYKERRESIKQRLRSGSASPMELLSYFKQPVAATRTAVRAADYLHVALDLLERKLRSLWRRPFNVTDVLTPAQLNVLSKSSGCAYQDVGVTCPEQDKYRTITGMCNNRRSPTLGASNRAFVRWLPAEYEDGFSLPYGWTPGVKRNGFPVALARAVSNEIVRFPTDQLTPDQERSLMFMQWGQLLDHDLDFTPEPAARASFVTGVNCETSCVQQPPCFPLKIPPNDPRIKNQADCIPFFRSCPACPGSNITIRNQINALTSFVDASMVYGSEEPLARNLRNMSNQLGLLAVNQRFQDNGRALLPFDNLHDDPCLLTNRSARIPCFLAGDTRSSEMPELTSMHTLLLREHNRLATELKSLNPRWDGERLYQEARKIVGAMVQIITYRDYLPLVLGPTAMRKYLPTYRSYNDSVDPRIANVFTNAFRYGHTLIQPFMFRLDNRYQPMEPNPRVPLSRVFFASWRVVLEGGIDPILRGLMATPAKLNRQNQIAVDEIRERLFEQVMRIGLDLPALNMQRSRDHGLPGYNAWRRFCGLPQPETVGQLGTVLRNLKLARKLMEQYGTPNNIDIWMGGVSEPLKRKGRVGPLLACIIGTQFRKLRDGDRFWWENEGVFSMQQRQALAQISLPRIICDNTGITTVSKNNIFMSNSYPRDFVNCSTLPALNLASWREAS
Experiment: Inhibition of LDL oxidation by MPO, ELISA with Mab AG9
Format: biochemical
Conditions: Table 3, 3-amidoindole analogues, oxidation of LDL; read-out: Mox LDL IC50
compounds and their reported pIC50
pIC50 here is simply -log10 of the concentration when that concentration is written in mol/L.

INSERT INTO measurements (compound_structure, observed_measurement) VALUES
  ('NC(=O)CCCCc1c[nH]c2ccc(F)cc12', 7.36),
  ('NC(=O)CCCCc1c[nH]c2c(F)cccc12', 7.37),
  ('NC(=O)CCCc1c[nH]c2ccc(F)cc12', 7.74);

query: What is its pIC50 for LDL oxidation carried out by MPO (Homo sapiens)? Entry: NC(=O)CCCc1c[nH]c2c(F)cccc12
result: 7.62

query: Now the same for CNC(=O)CCCc1c[nH]c2ccc(F)cc12
result: 7.02
